Test system: NCI-H522
assayOverview: NCI tumour cell line growth inhibition, 48 h
Calls of active or inactive are those of the source. Cut-off read from the data, not from the text of the source: active = GI50 up to about 1.1 µM and inactive = higher.
Respond using exactly one of the listed classes: active, inactive

compound="COc1ccc(C2S/C(=C\\c3cccc(O)c3)C(=O)N2NC(=O)Cc2ccccc2)cc1 (stereo not drawn)" category=inactive
compound=CCOC(=O)c1ccc(Nc2nc3cc(C(F)(F)F)ccc3nc2-c2ccccc2)cc1 category=inactive
compound="O=C1N(c2ccccc2)N=C2c3ccncc3C3=NN(c4ccccc4)C(=O)C123 (stereo not drawn)" category=inactive
compound=N#C/C(=C\c1ccc(O)c(O)c1)c1c(C#N)c(N)nn1-c1ccccc1 category=inactive
compound="O=C(Nc1ccc(Cl)cc1)C(=O)C(C(=O)c1ccccc1-c1ccccc1)C1OC(=O)c2ccccc21 (stereo not drawn)" category=inactive
compound=O=C(NC(=S)Nc1ccc([N+](=O)[O-])cc1)c1ccc2c(c1)Sc1ccccc1O2 category=inactive
compound=Cn1c2ccccc2n2c(=O)c(-c3ccc(Cl)cc3)nnc12 category=inactive
compound=CCOC(=O)c1ccc(Nc2nc3cc(C(F)(F)F)ccc3nc2C(=O)OCC)cc1 category=inactive

Recorded test outcome, item CCN1C[C@]2(C)CC[C@H](O)C34C1C(C[C@@H]32)[C@@]1(O)CC[C@H]2C[C@@H]4[C@@H]1[C@H]2O
inactive

Each compound tested received a call. Report the one for O[C@@]1(C#Cc2ccc3c(c2)OCO3)CCC[C@H]1NCc1ccccc1 .
inactive

# fetch the recorded call for N#Cc1ccc(-c2nc3cc(Cl)ccc3[nH]2)cc1 here
inactive

What outcome does the record of this test show for COc1cc2nc(NCCCCCNC(=O)c3ccco3)nc(N)c2cc1OC ?
inactive

Assay outcome for COc1cccc([C@H]2CC(=O)c3cc4c(cc3N2)OCO4)c1 : what was it?
active

Any idea what this test logged for CCC(C)CNC1=C(NC(C)=O)C(=O)c2ccccc2C1=O (stereo not drawn) ?
inactive

// return assay outcome for Cn1ncnc1CCc1ccccc1
inactive

Please state the recorded outcome for this compound: O=c1[nH]c(-c2ccccc2)nc2ccc(Cl)cc12
inactive

Call for entry CCCCCC/C=C1\CCC(CN2CCCC2)C1=O (stereo not drawn) :
inactive

Tell me the recorded outcome of this test for C[C@]12C=CC(=O)C=C1[C@@H](F)C[C@H]1[C@@H]3CC[C@](O)(C(=O)CO)[C@@]3(C)C[C@H](O)[C@@]12F .
inactive

----------
System: RPMI-8226
assayOverview: NCI tumour cell line growth inhibition, 48 h
The source made the active and inactive calls. Cut-off read from the data, not from the text of the source: active = GI50 up to about 1.1 µM and inactive = higher.
Mark one answer only. Choices: active, inactive

Name the outcome recorded for Nc1ccc2c(=S)c3ccccc3[nH]c2c1 in the assay.
inactive

Test call, this compound: O/N=C1/CCCCC1NO (configuration not stated)
inactive

Could you kindly confirm the outcome this assay logged for CN(C)c1nnnn1-c1c(N)n(C)c(=O)n(C)c1=O ?
inactive

In this assay, the call recorded for CC(C)(C)c1ccccc1NS(=O)(=O)c1ccccc1 was what?
inactive

Entry CC1=NN(c2nc(N)nc(/C(C#N)=C\c3ccc([N+](=O)[O-])s3)n2)C(C)(C)C1 : call = ?
active

What did this assay record as the result for COc1ccc(NC2C(=O)C3(C)CCC2C3(C)C)cc1 (configuration not stated) ?
inactive

Please share the test call associated with C=C(C)C(=O)O[C@@H]1C[C@@]2(C)O[C@@H]2C[C@H](O)/C(C)=C/[C@H]2OC(=O)C(=C)[C@@H]21 .
inactive

----------
Tested on: CCRF-CEM
assayOverview: NCI tumour cell line growth inhibition, 48 h
Calls of active or inactive are those of the source. No stated cut-off is given here; in the data, active = GI50 up to about 1.1 µM and inactive = higher.
Pick one: 1.0 (active), 0.0 (inactive)

molecule="COC(=O)c1ccccc1CC1Cc2c(C)ccc(C)c2C1=O (configuration not stated)" category=0.0
molecule=Cc1cc(O)c(C(C)C)cc1SC#N category=0.0
molecule=CN(C)c1ccc(/C=C/c2ccnc3ccccc23)cc1N category=0.0

Call for entry CCC(C)CNC1=C(NC(C)=O)C(=O)c2ccccc2C1=O (configuration not stated) :
0.0

Which outcome did this test record for the molecule C[C@]12C=CC(=O)C=C1[C@@H](F)C[C@H]1[C@@H]3CC[C@](O)(C(=O)CO)[C@@]3(C)C[C@H](O)[C@@]12F ?
1.0

Would you mind telling me which call this test gave c1ccc(C(Oc2noc3ccccc23)c2ccccc2)cc1 ?
0.0

Lab log entry: Nc1ncnc2c1ccn2CC=C(CO)CO — outcome as called in the assay?
0.0

----------
Tested on: OVCAR-4
assayOverview: NCI tumour cell line growth inhibition, 48 h
Calls of active or inactive are those of the source. Rule as the data show it: active = GI50 up to about 1.1 µM and inactive = higher.
Return exactly one item of Yes (active), No (inactive)

# count of solved cases: 5
molecule="CC(=O)OC1COC(n2c(-c3ccc(Cl)cc3)cc(-c3ccccc3)c(C#N)c2=S)C(OC(C)=O)C1OC(C)=O (stereo unspecified)" category=No
molecule=O=C(CCNC12CC3CC(CC(C3)C1)C2)c1ccccc1 category=No
molecule=FC(F)(F)c1n[nH]c(SCc2ccc(Cl)cc2)n1 category=No
molecule=Cn1c(=O)c(/N=N/c2c(=O)n(C)c(=O)n3c2[nH]c2ccccc23)c2[nH]c3ccccc3n2c1=O category=No
molecule=COc1ccc(/C(C)=N/NC(=O)c2ccncc2)cc1OC category=No

Any idea what this test logged for c1cc2c(cc1NC1=NCCO1)OCO2 ?
No

Fill in: this test's call for O=C(O)c1cccc(SSc2cccc(C(=O)O)c2)c1 is ___
No

----------
Tested on: SF-268
assayOverview: NCI tumour cell line growth inhibition, 48 h
The source made the active and inactive calls. Cut-off read from the data, not from the text of the source: active = GI50 up to about 1.1 µM and inactive = higher.
experimentalEndpoint: GI50

compound=CC(=O)Nc1ccc2nncnc2c1 result="> 100 µM (inactive)"
compound="C[C@H](C1CC(C)(O)C(C)(O)C(O)O1)[C@H]1CC[C@H]2[C@@H]3[C@@H]4O[C@@H]4[C@@]4(O)CC=CC(=O)[C@]4(C)[C@H]3CC[C@]12C (some centres not stated)" result="5.31 µM (inactive)"
compound=O=C(CSc1nnc(-c2ccc(/N=C\c3ccc(Cl)cc3)cc2)o1)Nc1ccc(Cl)cc1Cl result="25.2 µM (inactive)"
compound=O=S(=O)(O)c1cc(O)c2c(/N=C\c3ccccc3O)cc(S(=O)(=O)O)cc2c1 result="> 100 µM (inactive)"
compound="Nc1ncnc2c1ncn2[C@]1(CO)C=C(CO)C(O)C1O (some centres not stated)" result="> 100 µM (inactive)"
compound="OCC(Cn1cncn1)(c1ccc(F)cc1F)n1cncn1 (configuration not stated)" result="> 100 µM (inactive)"

I'd like to know its GI50. The compound in question is Cn1c2ccccc2n2c(=O)c(-c3ccc(Cl)cc3)nnc12
> 100 µM (inactive)

Find the recorded GI50 belonging to O=C(N/C=C1\C(=O)Oc2ccccc2C1=O)NC1CCCCC1 and report it.
41.2 µM (inactive)

Param item = c1ccc2c(c1)N=C(NC1CCCCC1)CCN2 ; retrieve measured GI50.
> 100 µM (inactive)

Given the entry OC(c1cccnc1Cl)c1nc2ccccc2c2ccnc(Cl)c12 (configuration not stated) , report its measured GI50.
6.21 µM (inactive)

Item under review: CCOC(=O)c1c(NC(=O)Nc2ccccc2)c(C(N)=O)c2n1CCCCC2 . Reported GI50?
> 100 µM (inactive)

I would be grateful if you could share the reported GI50 for c1ccc2c(c1)NC1(N3CCCCC3)CCCCC21 (configuration not stated) .
52.5 µM (inactive)

----------
System: DLD-1
assayOverview: NCI tumour cell line growth inhibition, 48 h
The source made the active and inactive calls. Cut-off read from the data, not from the text of the source: active = GI50 up to about 1.1 µM and inactive = higher.
Listed molecules paired with reported GI50

Check out these entries, answers already filled in.
molecule=Cc1cc(O)cc2oc(=O)c3c(O)cc(O)cc3c12 experimentalendpoint=GI50 result="30.7 µM (inactive)"
molecule="COC(=O)C1C(O)C(C)C(O)OC1C(C)C(O)C(C)/C=C\\C=C(/C)C(=O)Nc1c(C)c(OC(C)=O)c2c(c1O)C(=O)C(C)=C1OCOC(/C(C)=C/C(C)=O)=C12 (centres undefined)" experimentalendpoint=GI50 result="8.93 µM (inactive)"
molecule="C[C@@H]1C[C@]2(C[C@@H](C)C3[C@@H](CC4(C)[C@@H]5CCC6C(C)(C)OC(=O)C=C[C@]67C[C@@]5(CC[C@]34C)OO7)O2)OC1=O (some centres undefined)" experimentalendpoint=GI50 result="52.7 µM (inactive)"

Proceeding to the next molecule to report its GI50.
What does the data say about its GI50? Entry: O=S(=O)(O)c1ccc(/N=N\c2ccc(/N=N\c3ccc(/C=C/c4ccc(/N=[N+](/[O-])c5ccc(/C=C/c6ccc(/N=N/c7ccc(/N=N\c8ccc(S(=O)(=O)O)cc8)cc7)cc6S(=O)(=O)O)c(S(=O)(=O)O)c5)cc4S(=O)(=O)O)c(S(=O)(=O)O)c3)cc2)cc1
> 100 µM (inactive)

----------
Tested on: U-251
assayOverview: NCI tumour cell line growth inhibition, 48 h
Active and inactive are the calls of the source. No stated cut-off is given here; in the data, active = GI50 up to about 1.1 µM and inactive = higher.
I would appreciate it if you answered using one of these outcomes: label 1 for active, label 0 for inactive

molecule=O=C1OC(=O)C(=C\c2ccc3c(c2)OCO3)/C1=C/c1ccc2c(c1)OCO2 targetentity=U-251 category="label 0"

Name the outcome recorded for N#Cc1nnc2c3c(-c4ccc(Cl)cc4)c(C#N)c(O)nc3nn2c1N in the assay.
label 0

Identify the outcome logged in this assay for the molecule shown: COC(=O)[C@]12CCC(C)(C)C[C@H]1[C@H]1C(=O)C=C3[C@@]4(C)C=C(C#N)C(=O)C(C)(C)[C@@H]4CC[C@@]3(C)[C@]1(C)CC2
label 1

# fetch the recorded call for C[C@@H](NC(=O)Cn1c(Cl)nc2ccccc21)c1ccccc1 here
label 0
